biological target: Thromboxane A2 receptor (Homo sapiens, UniProt P21731); test: Activity at TPalpha (short isoform) receptor expressed in HEK293 cells assessed as ability to antagonize U46619-mediated calcium ion mobilization; format: functional, cell-based
Sequence (P21731 whole entry, canonical isoform): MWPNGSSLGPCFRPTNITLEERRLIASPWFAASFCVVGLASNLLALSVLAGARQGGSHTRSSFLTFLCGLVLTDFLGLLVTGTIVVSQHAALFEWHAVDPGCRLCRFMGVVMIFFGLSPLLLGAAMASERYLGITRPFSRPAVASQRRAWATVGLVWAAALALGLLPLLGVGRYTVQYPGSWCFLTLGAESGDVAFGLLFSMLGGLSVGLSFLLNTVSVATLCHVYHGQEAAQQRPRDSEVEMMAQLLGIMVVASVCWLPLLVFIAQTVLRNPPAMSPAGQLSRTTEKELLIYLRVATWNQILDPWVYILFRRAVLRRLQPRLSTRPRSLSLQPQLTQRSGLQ
So basically: is IC50 under 80 nM? Then True. Not under? Then False.

Chemical smiles: Cc1ccc(Nc2ccc([N+](=O)[O-])cc2S(=O)(=O)NC(=O)N2CCCCC2)cc1
Label: True
--
Chemical smiles: CCCCNC(=O)NS(=O)(=O)c1cc([N+](=O)[O-])ccc1Oc1ccc(C)cc1
Label: False
--
Chemical smiles: CCCCCNC(=O)NS(=O)(=O)c1cc([N+](=O)[O-])ccc1Nc1cccc(C)c1
Label: True
--
Chemical smiles: Cc1ccc(Oc2ccc([N+](=O)[O-])cc2S(=O)(=O)NC(=O)NC(C)(C)C)cc1
Label: True
--
Chemical smiles: Cc1ccc(Oc2ccc([N+](=O)[O-])cc2S(=O)(=O)NC(=O)NC2CCCCC2)cc1
Label: False
--
Chemical smiles: CCCCCCNC(=O)NS(=O)(=O)c1cc([N+](=O)[O-])ccc1Oc1ccc(C)cc1
Label: False
--
Chemical smiles: Cc1ccc(Sc2ccc([N+](=O)[O-])cc2S(=O)(=O)NC(=O)NC(C)(C)C)cc1
Label: False
